Target or system: T1, CD83-His (ectodomain of human CD83 with 6x Histidine tag) (human, UniProt Q01151 20-144)
T1 construct: extracellular domain; Expressed in mammalian cells; also called hCD83-His; recombinant CD83-His; not shown: 6x Histidine tag
T1 sequence (looked up): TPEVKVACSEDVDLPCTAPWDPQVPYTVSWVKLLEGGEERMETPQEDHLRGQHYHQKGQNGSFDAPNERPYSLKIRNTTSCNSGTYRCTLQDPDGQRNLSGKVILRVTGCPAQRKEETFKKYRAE
Run description: relative binding of light chain shuffled clones against 1F7; CD83 construct not given
Attribute measured: binding result

(Q) Record request: binding result value, item hFab4.4 (Fab, V domains shown, Light chain shuffled variant of 1F7, expressed as hFab in the E. coli periplasm) VH: EVQLVQSGGAVVQPGRSLRLSCAASGFTFSTYGMHWVRQAPGKGLEWVAAVSYDGSNKYYADFVKGRFTISRDNPKNTLYLQMNSLRADDTAVYYCARRGGLDIWGQGTTVTVSS VL: MTQSPLSLPVTLGQPASISCRSSQSLVDSAGNTFLHWFHQRPGQSPRRLIYKVSNRDSGVPDRFSGSGSGTDFTLKISRVEAEDVGVYYCMQGTHWPRTFGQGTKVEIKR
(A) binds

(Q) Now this one: hFab4.9 (Fab, V domains shown, Light chain shuffled variant of 1F7) VH: EVQLVQSGGAVVQPGRSLRLSCAASGFTFSTYGMHWVRQAPGKGLEWVAAVSYDGSNKYYADFVKGRFTISRDNPKNTLYLQMNSLRADDTAVYYCARRGGLDIWGQGTTVTVSS VL: MTQSPSSLSASVGHPVTITCRASQSLISYLNWYHQKPGKAPKLLIYAASILQSGVPSRFSGSGSGTDFTLTISSLQPENFASYYCQHTDSFPRTFGHGTKVEIKR
(A) binds

Measured values drawn from patent US20210101992A1 for this set.
